Recorded values, source ChEMBL document CHEMBL1157639.

# maps each entry to its inhibition
- tested.system: Secreted aspartic protease 2 (Candida albicans) (UniProt P0CS83)
- Sequence (P0CS83 57-398 limits assumed): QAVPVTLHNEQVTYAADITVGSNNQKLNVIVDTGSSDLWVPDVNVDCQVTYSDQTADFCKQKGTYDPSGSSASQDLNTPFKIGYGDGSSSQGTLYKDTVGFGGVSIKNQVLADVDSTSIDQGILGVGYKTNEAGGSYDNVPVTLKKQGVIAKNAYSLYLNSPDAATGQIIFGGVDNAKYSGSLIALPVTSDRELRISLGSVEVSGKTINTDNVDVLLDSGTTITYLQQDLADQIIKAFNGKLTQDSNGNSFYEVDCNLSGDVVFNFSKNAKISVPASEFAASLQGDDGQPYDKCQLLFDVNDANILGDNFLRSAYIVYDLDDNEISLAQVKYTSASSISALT
- assay.text: Inhibition of Candida albicans SAP2 at 10 uM by spectrophotometry
property.name: inhibition (%)

{"compound": "CNC(=O)[C@@H]1O[C@@H]2O[C@H]1C(=O)N(Cc1ccccc1)[C@H]2Cc1ccccc1", "measured.result": 29}
{"compound": "CCCNC(=O)[C@@H]1O[C@@]2(c3ccccc3)CN(C(c3ccccc3)c3ccccc3)C[C@@H]1O2", "measured.result": 3}
{"compound": "O=C(NCC(F)(F)F)[C@@H]1O[C@@H]2O[C@H]1C(=O)N(Cc1ccccc1)[C@H]2Cc1ccccc1", "measured.result": 8}
{"compound": "O=C([C@@H]1O[C@@]2(c3ccccc3)CN(C(c3ccccc3)c3ccccc3)C[C@@H]1O2)N1CCCCC1", "measured.result": 6}
{"compound": "CC(NC(=O)[C@@H]1O[C@H]2CN(Cc3ccccc3)C(=O)[C@@H]1O2)c1ccccc1 (stereo partly drawn)", "measured.result": 22}
{"compound": "CCOC(=O)N1CCN(C(=O)[C@@H]2O[C@@]3(c4ccccc4)CN(C(c4ccccc4)c4ccccc4)C(=O)[C@@H]2O3)CC1", "measured.result": 5}
{"compound": "C#CCNC(=O)[C@@H]1O[C@@]2(c3ccccc3)CN(C(c3ccccc3)c3ccccc3)C[C@@H]1O2", "measured.result": 3}
{"compound": "O=C(NCc1ccccc1)[C@@H]1O[C@H]2CN(Cc3ccccc3)C(=O)[C@@H]1O2", "measured.result": 4}
{"compound": "CCCCCCNC(=O)[C@@H]1O[C@@H]2O[C@H]1C(=O)N(Cc1ccccc1)[C@H]2Cc1ccccc1", "measured.result": 8}
{"compound": "NC(=O)C1O[C@H]2CN(Cc3ccccc3)C(=O)[C@@H]1O2 (single isomer, unassigned)", "measured.result": 4}
{"compound": "O=C([C@@H]1O[C@@]2(c3ccccc3)CN(C(c3ccccc3)c3ccccc3)C(=O)[C@@H]1O2)N1CCOCC1", "measured.result": 5}
{"compound": "CC(NC(=O)[C@@H]1O[C@@]2(c3ccccc3)CN(C(c3ccccc3)c3ccccc3)C(=O)[C@@H]1O2)c1ccccc1 (stereo partly drawn)", "measured.result": 0}
{"compound": "COC(=O)[C@H](CC(C)C)N1C[C@@]2(C)O[C@H](C(=O)N3CCN(Cc4ccccc4)CC3)[C@H](O2)C1=O", "measured.result": 28}
{"compound": "O=C([C@@H]1O[C@@H]2O[C@H]1C(=O)N(Cc1ccccc1)[C@H]2Cc1ccccc1)N1CCCNCC1", "measured.result": 17}
{"compound": "CN(CCN)C(=O)[C@@H]1O[C@H]2CN(Cc3ccccc3)C[C@@H]1O2", "measured.result": 2}
{"compound": "CCCNC(=O)[C@@H]1O[C@H]2CN(Cc3ccccc3)C[C@@H]1O2", "measured.result": 3}
{"compound": "O=C([C@@H]1O[C@@]2(c3ccccc3)CN(C(c3ccccc3)c3ccccc3)C(=O)[C@@H]1O2)N1CCN(CCO)CC1", "measured.result": 5}
{"compound": "CC(C)C[C@@H](CO)NC(=O)[C@@H]1O[C@@H]2O[C@H]1C(=O)N(Cc1ccccc1)[C@H]2Cc1ccccc1", "measured.result": 17}
{"compound": "O=C(NC1CCCCC1)[C@@H]1O[C@@]2(c3ccccc3)CN(C(c3ccccc3)c3ccccc3)C(=O)[C@@H]1O2", "measured.result": 0}
{"compound": "O=C(NCC(F)(F)F)[C@@H]1O[C@@]2(c3ccccc3)CN(C(c3ccccc3)c3ccccc3)C[C@@H]1O2", "measured.result": 3}
{"compound": "CN(CCN)C(=O)[C@@H]1O[C@@H]2O[C@H]1C(=O)N(Cc1ccccc1)[C@H]2Cc1ccccc1", "measured.result": 17}
{"compound": "O=C([C@@H]1O[C@@H]2O[C@H]1C(=O)N(Cc1ccccc1)[C@H]2Cc1ccccc1)N1CCN(CCO)CC1", "measured.result": 13}
{"compound": "O=C([C@@H]1O[C@@H]2O[C@H]1C(=O)N(Cc1ccccc1)[C@H]2Cc1ccccc1)N1CCSCC1", "measured.result": 13}
{"compound": "CCOC(=O)N1CCN(C(=O)[C@@H]2O[C@H]3CN(Cc4ccccc4)C(=O)[C@@H]2O3)CC1", "measured.result": 10}
{"compound": "C#CCNC(=O)[C@@H]1O[C@H]2CN(Cc3ccccc3)C[C@@H]1O2", "measured.result": 3}
{"compound": "O=C(NC1CCCCC1)[C@@H]1O[C@@H]2O[C@H]1C(=O)N(Cc1ccccc1)[C@H]2Cc1ccccc1", "measured.result": 36}
{"compound": "CN(CCN)C(=O)[C@@H]1O[C@@]2(c3ccccc3)CN(C(c3ccccc3)c3ccccc3)C[C@@H]1O2", "measured.result": 6}
{"compound": "O=C(NC1CC1)[C@@H]1O[C@H]2CN(Cc3ccccc3)C[C@@H]1O2", "measured.result": 3}
{"compound": "CCCCCNC(=O)[C@@H]1O[C@@]2(c3ccccc3)CN(C(c3ccccc3)c3ccccc3)C(=O)[C@@H]1O2", "measured.result": 0}
{"compound": "O=C([C@@H]1O[C@@]2(c3ccccc3)CN(C(c3ccccc3)c3ccccc3)C[C@@H]1O2)N1CCSCC1", "measured.result": 6}
{"compound": "O=C([C@@H]1O[C@@H]2O[C@H]1C(=O)N(Cc1ccccc1)[C@H]2Cc1ccccc1)N1CCOCC1", "measured.result": 13}
{"compound": "C#CCNC(=O)[C@@H]1O[C@@H]2O[C@H]1C(=O)N(Cc1ccccc1)[C@H]2Cc1ccccc1", "measured.result": 8}
{"compound": "O=C([C@@H]1O[C@H]2CN(Cc3ccccc3)C[C@@H]1O2)N1CCCCC1", "measured.result": 2}

---

- tested.system: Secreted aspartic protease 2 (Candida albicans) (UniProt P0CS83)
- assay.text: Inhibition of Candida albicans SAP2 at 20 uM by spectrophotometry relative to pepstatin A
Classification field: enter 1 (yes) for inhibition values not below 30%, 0 (no) for values below it.

{"compound.smiles": "O=C(NCCCO)[C@@H]1O[C@H]2CN(Cc3ccccc3)C(=O)[C@@H]1O2", "tested.system": "Secreted aspartic protease 2 (Candida albicans) (UniProt P0CS83)", "assigned.category": "0 (no)"}
{"compound.smiles": "O=C([C@@H]1O[C@H]2CN(Cc3ccccc3)C(=O)[C@@H]1O2)N1CCCCC1", "tested.system": "Secreted aspartic protease 2 (Candida albicans) (UniProt P0CS83)", "assigned.category": "1 (yes)"}
{"compound.smiles": "O=C([C@@H]1O[C@H]2CN(Cc3ccccc3)C(=O)[C@@H]1O2)N1CCOCC1", "tested.system": "Secreted aspartic protease 2 (Candida albicans) (UniProt P0CS83)", "assigned.category": "1 (yes)"}
{"compound.smiles": "O=C1[C@@H]2O[C@H](CN1Cc1ccccc1)O[C@H]2C(=O)N1CCC[C@@H]1CO", "tested.system": "Secreted aspartic protease 2 (Candida albicans) (UniProt P0CS83)", "assigned.category": "1 (yes)"}
{"compound.smiles": "CC(C)C[C@H](CO)NC(=O)[C@H]1O[C@@H]2CN(Cc3ccccc3)C(=O)[C@@H]1O2", "tested.system": "Secreted aspartic protease 2 (Candida albicans) (UniProt P0CS83)", "assigned.category": "1 (yes)"}

---

Entries and their measured inhibition follow.
- tested.system: Secreted aspartic protease 2 (Candida albicans)
- assay.text: Inhibition of Candida albicans SAP2 at 10 uM by spectrophotometry
property.name: inhibition (%)

{"compound.smiles": "CCCCNC(=O)[C@@H]1O[C@H]2CN(Cc3ccccc3)C(=O)[C@@H]1O2", "measured.result": 4}
{"compound.smiles": "CCOC(=O)N1CCN(C(=O)[C@@H]2O[C@@H]3O[C@H]2C(=O)N(Cc2ccccc2)[C@H]3Cc2ccccc2)CC1", "measured.result": 17}
{"compound.smiles": "CNC(=O)[C@@H]1O[C@H]2CN(Cc3ccccc3)C(=O)[C@@H]1O2", "measured.result": 4}
{"compound.smiles": "CCOC(=O)C1CCN(C(=O)[C@@H]2O[C@@]3(c4ccccc4)CN(C(c4ccccc4)c4ccccc4)C(=O)[C@@H]2O3)CC1", "measured.result": 5}

---

- tested.system: Secreted aspartic protease 2 (Candida albicans) (UniProt P0CS83)
- assay.text: Inhibition of Candida albicans SAP2 at 10 uM by spectrophotometry relative to pepstatin A
property.name: inhibition

{"compound": "O=C(NC1CC1)[C@@H]1O[C@@H]2O[C@H]1C(=O)N(Cc1ccccc1)[C@H]2Cc1ccccc1", "measured.result": "87%"}
{"compound": "O=C(NCC(F)(F)F)[C@@H]1O[C@@H]2O[C@H]1C(=O)N(Cc1ccccc1)[C@H]2Cc1ccccc1", "measured.result": "42%"}
{"compound": "O=C([C@@H]1O[C@H]2CN(Cc3ccccc3)C(=O)[C@@H]1O2)N1CCCNCC1", "measured.result": "19%"}
{"compound": "CCOC(=O)N1CCN(C(=O)[C@@H]2O[C@@]3(c4ccccc4)CN(C(c4ccccc4)c4ccccc4)C(=O)[C@@H]2O3)CC1", "measured.result": "19%"}
{"compound": "CC(C)CCNC(=O)[C@@H]1O[C@H]2CN(Cc3ccccc3)C[C@@H]1O2", "measured.result": "13%"}
{"compound": "O=C(NC1CCCCC1)[C@@H]1O[C@@H]2O[C@H]1C(=O)N(Cc1ccccc1)[C@H]2Cc1ccccc1", "measured.result": "73%"}
{"compound": "O=C([C@@H]1O[C@@]2(c3ccccc3)CN(C(c3ccccc3)c3ccccc3)C[C@@H]1O2)N1CCSCC1", "measured.result": "23%"}
{"compound": "CCCNC(=O)[C@@H]1O[C@H]2CN(Cc3ccccc3)C[C@@H]1O2", "measured.result": "13%"}
{"compound": "CCCCCCNC(=O)[C@@H]1O[C@@H]2O[C@H]1C(=O)N(Cc1ccccc1)[C@H]2Cc1ccccc1", "measured.result": "42%"}
{"compound": "CNC(=O)[C@@H]1O[C@H]2CN(Cc3ccccc3)C(=O)[C@@H]1O2", "measured.result": "18%"}
{"compound": "O=C([C@@H]1O[C@H]2CN(Cc3ccccc3)C(=O)[C@@H]1O2)N1CCCCC1", "measured.result": "67%"}
{"compound": "C#CCNC(=O)[C@@H]1O[C@@H]2O[C@H]1C(=O)N(Cc1ccccc1)[C@H]2Cc1ccccc1", "measured.result": "42%"}
{"compound": "O=C([C@@H]1O[C@H]2CN(Cc3ccccc3)C(=O)[C@@H]1O2)N1CCOCC1", "measured.result": "92%"}
{"compound": "CC(NC(=O)[C@@H]1O[C@H]2CN(Cc3ccccc3)C(=O)[C@@H]1O2)c1ccccc1 (stereo partly drawn)", "measured.result": "87%"}
{"compound": "CC(C)CCNC(=O)[C@@H]1O[C@@H]2O[C@H]1C(=O)N(Cc1ccccc1)[C@H]2Cc1ccccc1", "measured.result": "87%"}
{"compound": "CCOC(=O)C1CCN(C(=O)[C@@H]2O[C@@]3(c4ccccc4)CN(C(c4ccccc4)c4ccccc4)C[C@@H]2O3)CC1", "measured.result": "23%"}
{"compound": "O=C([C@@H]1O[C@H]2CN(Cc3ccccc3)C[C@@H]1O2)N1CCOCC1", "measured.result": "6%"}
{"compound": "O=C([C@@H]1O[C@H]2CN(Cc3ccccc3)C[C@@H]1O2)N1CCSCC1", "measured.result": "6%"}
